Reference source: patent US12264163B2

Give Nuclear localization (% of total cells) for every item shown.
System: YAP/TAZ
Test: YAP/TAZ nuclear localization in IPF patient-derived lung fibroblasts treated with dopaminergic agonists
Type: cell-based, human
Settings: IPF-2 patient fibroblasts; 10 μM, 2 hours
Structures can show the parent of a compound that is named as a salt.

Readout Nuclear localization (% of total cells) for CCCN(CCC)CCc1cccc2c1CC(=O)N2 [Ropinirole HCl, Ropinirole] , test system YAP/TAZ, was 58.68 % of total cells

Readout Nuclear localization (% of total cells) for CCCN1CCO[C@@H]2c3cc(O)ccc3OC[C@H]21.Cl (racemic) [(±)-PD 128,907•HCl, (±)-PD 128,907] , test system YAP/TAZ, was 49.54 % of total cells

Readout Nuclear localization (% of total cells) for CN1C[C@@H](NS(=O)(=O)N(C)C)C[C@@H]2c3cccc4c3c(cn4C)C[C@H]21 [Mesulergine•HCl, Mesulergine] , test system YAP/TAZ, was 45.14 % of total cells

Readout Nuclear localization (% of total cells) for CN1Cc2ccccc2[C@@H]2c3cccc4[nH]cc(c34)C[C@H]21 , test system YAP/TAZ, was 39.79 % of total cells

Readout Nuclear localization (% of total cells) for Br.C=CCN1CCc2c(cc(O)c(O)c2Cl)C(c2ccccc2)C1 (racemic) [(±)-SKF-82958•HBr, (±)-SKF-82958] , test system YAP/TAZ, was 38 % of total cells
